Origin of measurements: patent US9878986B2

Target: HDAC1 (Homo sapiens)
Sequence (Q13547 whole entry): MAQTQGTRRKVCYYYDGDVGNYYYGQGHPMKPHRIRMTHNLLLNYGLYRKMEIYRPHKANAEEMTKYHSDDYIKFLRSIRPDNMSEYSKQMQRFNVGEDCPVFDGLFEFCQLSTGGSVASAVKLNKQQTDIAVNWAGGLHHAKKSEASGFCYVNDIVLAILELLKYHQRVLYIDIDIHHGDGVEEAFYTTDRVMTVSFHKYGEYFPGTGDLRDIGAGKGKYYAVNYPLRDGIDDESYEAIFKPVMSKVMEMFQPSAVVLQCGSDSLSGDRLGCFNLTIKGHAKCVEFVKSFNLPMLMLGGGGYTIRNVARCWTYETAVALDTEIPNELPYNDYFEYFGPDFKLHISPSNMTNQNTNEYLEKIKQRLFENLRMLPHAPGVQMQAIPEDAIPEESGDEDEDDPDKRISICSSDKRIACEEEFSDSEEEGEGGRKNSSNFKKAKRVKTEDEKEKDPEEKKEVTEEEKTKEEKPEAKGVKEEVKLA
Assay: Test of HDAC activities, HDAC1 Fluorimetric Drug Discovery Assay Kit
Assay type: biochemical
Parameters: purchased Enzolifesciences BML-AK511
Conditions: samples at 100, 1000, 10000 nM; 37° C. 60 minutes; fluorescence Ex 390, Em 460; read-out: HDAC inhibitory activities, HDAC1
measured metric: IC50 (nM)
Use nM as the unit, but write only the number.

Use these answered entries as a reference point.
* CN1CCN(C(=O)N(Cc2ccc(C(=O)NO)cc2)c2cccc(-c3ccc4c(c3)OCO4)c2)CC1 | 408
* O=C(NO)c1ccc(CN(C(=O)N2CC[C@H](F)C2)c2cccc(C(F)(F)F)n2)cc1 | 1600
* O=C(NO)c1ccc(CN(C(=O)N2CCOCC2)c2ccccn2)cc1 | 1260
* O=C(NO)c1ccc(CN(C(=O)N2CCOCC2)c2cccc(C3CCOCC3)c2)cc1 | 840
* O=C(NO)c1ccc(CN(C(=O)N2CCN(c3ccncc3)CC2)c2ccc(C(F)(F)F)cc2)cc1 | 503
* CC1CCN(C(=O)N(Cc2ccc(C(=O)NO)cc2)c2ccc(F)c(Cl)c2)CC1 | 3360

Continue with the next compound.
Problem: Name the recorded IC50 for CCN1CCN(C(=O)N(Cc2ccc(C(=O)NO)cc2)c2cccc(C(F)(F)F)c2)CC1 .
Result: 2720
